MEASUREMENT_DESCRIPTION: Plasma AMG 232 pharmacokinetics (HPLC-MS, non-compartmental analysis)
Type: in vivo, human
CONDITION: human, plasma, oral, 240 mg, Day 1, 240-mg dose expansion, Other Solid (n = 9–16); read-out: Cmax, mean (SD)
MEASUREMENT_NAME: Cmax
Reply with the number, then its unit.

Exam item: Read off the recorded Cmax for CC(C)[C@@H](CS(=O)(=O)C(C)C)N1C(=O)[C@@](C)(CC(=O)O)C[C@H](c2cccc(Cl)c2)[C@H]1c1ccc(Cl)cc1 [AMG 232]
Marked response: 1670 ng/mL

* * *

MEASUREMENT_DESCRIPTION: Plasma AMG 232 pharmacokinetics (HPLC-MS, non-compartmental analysis)
Format: in vivo, human
CONDITION: human, plasma, oral, 240 mg, Day 7, 240-mg dose expansion, Total (n = 47–67); read-out: Vz/F, mean (SD)
MEASUREMENT_NAME: Vd/F (L)
Quick note: give the figure in L, leave out the unit.

Exam item: Read off the recorded Vd/F for CC(C)[C@@H](CS(=O)(=O)C(C)C)N1C(=O)[C@@](C)(CC(=O)O)C[C@H](c2cccc(Cl)c2)[C@H]1c1ccc(Cl)cc1
Marked response: 627

* * *

MEASUREMENT_DESCRIPTION: Plasma AMG 232 pharmacokinetics (HPLC-MS, non-compartmental analysis)
Type: in vivo, human
CONDITION: human, plasma, oral, 30 mg, Day 7, dose escalation, 30 mg (n = 3); read-out: tmax, median (range)
MEASUREMENT_NAME: Tmax
Reply with the number, then its unit.

Exam item: Read off the recorded Tmax for CC(C)[C@@H](CS(=O)(=O)C(C)C)N1C(=O)[C@@](C)(CC(=O)O)C[C@H](c2cccc(Cl)c2)[C@H]1c1ccc(Cl)cc1
Marked response: 3 h

* * *

MEASUREMENT_DESCRIPTION: Plasma AMG 232 pharmacokinetics (HPLC-MS, non-compartmental analysis)
Assay type: in vivo, human
CONDITION: human, plasma, oral, 300 mg, Day 7, dose escalation, 300 mg (n = 3–4); read-out: Cmax, mean (SD)
MEASUREMENT_NAME: Cmax (ng/mL)
Quick note: give the figure in ng/mL, leave out the unit.

Exam item: Read off the recorded Cmax for CC(C)[C@@H](CS(=O)(=O)C(C)C)N1C(=O)[C@@](C)(CC(=O)O)C[C@H](c2cccc(Cl)c2)[C@H]1c1ccc(Cl)cc1
Marked response: 2090

* * *

MEASUREMENT_DESCRIPTION: Plasma AMG 232 pharmacokinetics (HPLC-MS, non-compartmental analysis)
Type: in vivo, human
CONDITION: human, plasma, oral, 240 mg, Day 7, 240-mg dose expansion, WDLPS (n = 9–10); read-out: Cmax, mean (SD)
MEASUREMENT_NAME: Cmax
Reply with the number, then its unit.

Exam item: Read off the recorded Cmax for CC(C)[C@@H](CS(=O)(=O)C(C)C)N1C(=O)[C@@](C)(CC(=O)O)C[C@H](c2cccc(Cl)c2)[C@H]1c1ccc(Cl)cc1
Marked response: 1230 ng/mL

* * *

MEASUREMENT_DESCRIPTION: Plasma AMG 232 pharmacokinetics (HPLC-MS, non-compartmental analysis)
Type: in vivo, human
CONDITION: human, plasma, oral, 240 mg, Day 7, Parts 1 and 2, 240 mg (n = 54–75); read-out: tmax, median (range)
MEASUREMENT_NAME: Tmax
Reply with the number, then its unit.

Exam item: Read off the recorded Tmax for CC(C)[C@@H](CS(=O)(=O)C(C)C)N1C(=O)[C@@](C)(CC(=O)O)C[C@H](c2cccc(Cl)c2)[C@H]1c1ccc(Cl)cc1
Marked response: 2.9 h
